Biological target: SADS HR2 peptide (SADS)
Test: peptide ELISA
quantity-kind: EC50

The reported value for hr2.016 (antibody, V domains shown) VH: EVQLLESGGGLVQPGGSLRLSCAASGFMFSKYAMTWVRQTPGKGLEWVSVISGGGGSTYYADSVKGRFTISRDNSKNTLYLQMNSLRAEDTAVYYCAKLLVVFVIDYWGQGALVTVSS VL: EIVLTQSPGTLSLSPGERATLFCRASQSVSSNLAWYQQKPGRAPRLLISGASSRATGIPDRFSGSGSGTDFTLTISRLEPEDFAVYYCQQYGSSPPTFGQGTKVEIK in terms of EC50 is 0.0738 µg/mL
